Cited source for all entries: PubChem BioAssay AID1963845

# System: 429239-143-T-J1-PDC complex spheroid viability;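 note: luminescence signal used as surrogate measure of viable cells; spheroids exposed to compounds for seven days before readout; 100% = DMSO vehicle control viability as luminescence relative to vehicle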
# Measurement protocol: Anticancer human tumor 429239-143-T-J1-PDC patient-derived small cell lung carcinoma cell line growth inhibition [POLQ]
# Condition parameters: second compound 10 µM; first compound 1 µM; stronger effect = lower value
Assay readout: viability, T/C (%)
Numbers only, in %.

- Compound: "O=C(c1cc(Cc2n[nH]c(=O)c3ccccc23)ccc1F)N1CCN(C(=O)C2CC2)CC1 + Cc1cccc(N(C)C(=O)C2C(O)CCN2c2nc(C)cc(C(F)(F)F)c2C#N)c1"
  Assay readout: "viability, T/C"
  Obs value: 58.2
- Compound: "C=CC(=O)N1CCN(c2nc(=O)n(-c3c(C)ccnc3C(C)C)c3nc(-c4c(O)cccc4F)c(F)cc23)C(C)C1 (stereo not drawn) + Cc1cccc(N(C)C(=O)C2C(O)CCN2c2nc(C)cc(C(F)(F)F)c2C#N)c1"
  Assay readout: "viability, T/C"
  Obs value: 97.9

Need viability, T/C of COc1cc(C2c3cc4c(cc3C(OC3OC5COC(C)OC5C(O)C3O)C3COC(=O)C23)OCO4)cc(OC)c1O (stereo not drawn) + Cc1cccc(N(C)C(=O)C2C(O)CCN2c2nc(C)cc(C(F)(F)F)c2C#N)c1 , thanks.
20.7
